Tested on: SK-MEL-5
Experiment: NCI tumour cell line growth inhibition, 48 h
Activity calls are given as the source filed them. Rule as the data show it: active = GI50 up to about 1.1 µM and inactive = higher.
Labels: T = active, F = inactive

- compound: "O=C1C(=O)C(Br)(Br)C(Br)=C1Br"
  class assignment: "F"
- compound: "CC(=O)[C@H]1CC[C@H]2[C@@H]3CCC4=CC(=O)CC[C@]4(C)[C@H]3CC[C@]12C"
  class assignment: "F"
- compound: "COc1ccc2c(c1)N=C1CSC(c3cccc(Br)c3)N1C2 (stereo not given)"
  class assignment: "F"
- compound: "Cc1cc2c3c([nH]c2c2ccnc(C)c12)CCCC3"
  class assignment: "F"
- compound: "C/C=C1\\CN2CCc3c([nH]c4ccccc34)C2C=C1CCO (stereo not given)"
  class assignment: "F"
- compound: "Nc1nc(O)c(Br)c(-c2cccc([N+](=O)[O-])c2)n1"
  class assignment: "F"
- compound: "O=C1CSC2(CC(/C=C/c3ccccc3O)=NN2c2cccc(S(=O)(=O)O)c2)N1c1nc2ccccc2s1 (stereo not given)"
  class assignment: "F"
- compound: "O=C(O)C1CCCCN1c1ccccc1[N+](=O)[O-] (stereo not given)"
  class assignment: "F"
- compound: "CC(=O)c1csc2c1C(=O)c1ccccc1C2=O"
  class assignment: "T"
- compound: "COC(=O)C1=C(O)C(C(=O)OC)[C@]2(O)[C@H](C(=O)OC)[C@H]1C[C@@H](c1ccc(O)cc1)[C@H]2C(=O)OC (stereo not given in full)"
  class assignment: "F"
- compound: "COc1ccc(-c2cc(-c3ccco3)c(C#N)c(=S)n2C2OC(CO)C(O)C(O)C2O)cc1 (stereo not given)"
  class assignment: "F"
- compound: "C=C1C(=O)OC2CC(C)C(C(CC(C)=O)OC(C)=O)=CCC12 (stereo not given)"
  class assignment: "F"
- compound: "CN1C(OCc2ccccc2)c2c(ccc3c2OCO3)C2C=Cc3cc4c(cc3C21)OCO4 (stereo not given)"
  class assignment: "F"
- compound: "Nc1ncc(CN2CCOCC2)c(-c2ccccc2O)n1"
  class assignment: "F"
- compound: "O=C1c2c(c(-c3ccccc3)c(-c3ccccc3)c(-c3ccccc3)c2-c2ccccc2)C(=O)N1c1cccc(Br)c1"
  class assignment: "F"

---

Catalogue of compounds with associated GI50
Tested on: SK-OV-3
Test: NCI tumour cell line growth inhibition, 48 h
Calls of active or inactive are those of the source. Rule as the data show it: active = GI50 up to about 1.1 µM and inactive = higher.
assay readout: GI50

- compound: "CC1OC2OC3C(OCC(O)C3O)OC(=O)[C@]34CCC(C)(C)CC3C3=CCC5[C@@]6(C)C[C@H](O)[C@H](OC7OC(CO)C(O)C(O)C7OC7OC(COC(=O)CC(C)(O)CC(=O)OC1C(O)C2O)C(O)C(O)C7O)[C@@](C)(CO)C6CC[C@@]5(C)[C@]3(C)CC4 (some centres undefined)"
  result: "1.56 µM (inactive)"
- compound: "Cc1ccc(S(=O)(=O)OCOS(=O)(=O)c2ccc(C)cc2)cc1"
  result: "> 100 µM (inactive)"
- compound: "O=C(O)CNS(=O)(=O)c1ccc(NC(=O)c2cccc([N+](=O)[O-])c2)cc1"
  result: "> 100 µM (inactive)"
- compound: "O=C1/C(=C/c2ccc(Cl)cc2)CCC1CN1CCOCC1 (centres undefined)"
  result: "18 µM (inactive)"
